Test system: DU-145
Experiment: NCI tumour cell line growth inhibition, 48 h
Active and inactive are the calls of the source. Cut-off read from the data, not from the text of the source: active = GI50 up to about 1.1 µM and inactive = higher.
# output must be one of yes (1) for active, no (0) for inactive

Use these answered entries as a reference point.
>  <Compound>
COC(=O)C(Cc1ccccc1)NC(=O)CNC(=O)CSc1nnc(COc2ccc(Cl)cc2)n1-c1ccccc1 (configuration not stated)

>  <Subject Of Test>
DU-145

>  <Label Value>
no (0)

$$$$
>  <Compound>
N#CC1(C#N)C(c2ccccc2)C=CC(c2ccc([N+](=O)[O-])cc2)C1(C#N)C#N (configuration not stated)

>  <Subject Of Test>
DU-145

>  <Label Value>
no (0)

$$$$
>  <Compound>
COC1=CC(=O)c2c(O)c3c(c(O)c2C1=O)C=C(C)OC3O (configuration not stated)

>  <Subject Of Test>
DU-145

>  <Label Value>
yes (1)

$$$$

What did the test return for CC(C)C1/C(=N/O)CC(c2ccccc2)N(N=O)C1c1ccccc1 (configuration not stated) ?
no (0)

Moving on to the next compound: `O=C(Oc1cc(=O)c(OC(=O)c2ccccc2)co1)c1ccccc1`
no (0)

Moving on to the next compound: `O=C(O)c1nc2ccc(C(F)(F)F)cc2nc1NCc1ccc(Cl)c(Cl)c1`
no (0)

* * *

Tested on: HL-60
Test: NCI tumour cell line growth inhibition, 48 h
The source made the active and inactive calls. Cut-off read from the data, not from the text of the source: active = GI50 up to about 1.1 µM and inactive = higher.
Measured GI50 by item

Previously resolved entries follow.
>  <Compound>
O=C(O)c1ccccc1-c1ccccc1C(=O)c1ccccc1

>  <Readout>
GI50

>  <Obs Value>
> 100 µM (inactive)

$$$$
>  <Compound>
O=C(/C=C/c1ccc(O)cc1)c1cc(-c2cc(CCC(=O)c3ccc(O)cc3O)ccc2O)c(O)cc1O

>  <Readout>
GI50

>  <Obs Value>
17.9 µM (inactive)

$$$$
>  <Compound>
CCC1CC(C)=CCN1S(=O)(=O)c1ccc(C)cc1 (stereo not given)

>  <Readout>
GI50

>  <Obs Value>
3.61 µM (inactive)

$$$$
>  <Compound>
c1ccc([B-]2(c3ccccc3)NCCCO2)cc1

>  <Readout>
GI50

>  <Obs Value>
> 100 µM (inactive)

$$$$
>  <Compound>
Cc1cc(N(CCOS(C)(=O)=O)CCOS(C)(=O)=O)ccc1/C=N/c1ccc(-c2csc(-c3ccccc3)n2)c(Cl)c1

>  <Readout>
GI50

>  <Obs Value>
2.45 µM (inactive)

$$$$

Request the reported GI50 associated with `CNNC1=NS(=O)(=O)c2cc(C)c(Cl)cc2S1`
> 10 µM (inactive)

Moving on to the next compound: `COc1cc2c(cc1C)NC(=O)/C2=C/c1cccnc1`
4.04 µM (inactive)

Moving on to the next compound: O=c1ccn(/C=C/C(O)C(O)CO)c(=O)[nH]1 (stereo not given)
> 100 µM (inactive)

Moving on to the next compound: CCCCCCCCCCCCCCCC(=O)OCC1OC(n2cc(F)c(=O)[nH]c2=O)C(NC(=O)OCc2ccccc2)C(O)C1O (stereo not given)
20.2 µM (inactive)

Moving on to the next compound: `Nc1ccc2c(SCC(=O)Nc3ccccc3-c3ccccc3NC(=O)CSc3c4ccccc4nc4cc(N)ccc34)c3ccccc3nc2c1`
3.21 µM (inactive)

* * *

Tested on: RPMI-8226
Assay: NCI tumour cell line growth inhibition, 48 h
Calls of active or inactive are those of the source. No stated cut-off is given here; in the data, active = GI50 up to about 1.1 µM and inactive = higher.
# output must be one of 1 (active), 0 (inactive)

>  <Compound>
NC(=O)C(N)CC12CC3CC(CC(C3)C1)C2 (stereo not given)

>  <Label Value>
0

$$$$
>  <Compound>
CCCCCCCCCC[S+]([O-])CC(CO)NC(=O)/C=C/c1c(C)nc(O)nc1O (stereo not given)

>  <Label Value>
1

$$$$
>  <Compound>
CC(C)CC(=O)CC(O)C(Cl)(Cl)Cl (stereo not given)

>  <Label Value>
0

$$$$
>  <Compound>
O=C1CCN2CCC(=O)c3c2c(cc2ccccc32)N1

>  <Label Value>
0

$$$$
>  <Compound>
c1ccc([B-]2(c3ccccc3)NCCCO2)cc1

>  <Label Value>
0

$$$$
>  <Compound>
CCN(CC)CCC(=O)N1C/C(=C/c2ccccc2)C(=O)/C(=C\c2ccccc2)C1

>  <Label Value>
1

$$$$

What did the test return for CC(=O)Nc1ccc2c3c(cc(O)c2c1)N(C(=O)CCCCC(=O)N1CC(CCl)c2c1cc(O)c1cc(NC(C)=O)ccc21)CC3CCl (stereo not given) ?
1

Moving on to the next compound: `COC(=O)C(CCSc1ccccc1)C(=O)OC`
0

Moving on to the next compound: `C=C[C@@]1(C)CC(=O)[C@]2(O)[C@@]3(C)[C@@H](O)CCC(C)(C)[C@@H]3[C@H](O)[C@@H](OC(C)=O)[C@@]2(C)O1`
0

Moving on to the next compound: `CCOC(=O)Nn1c(C)nnc1CC#N`
0

* * *

Test system: SNB-75
Test: NCI tumour cell line growth inhibition, 48 h
The source made the active and inactive calls. Rule as the data show it: active = GI50 up to about 1.1 µM and inactive = higher.
Measured GI50 by item

Previously resolved entries follow.
>  <Molecule>
Cc1ccc2c(c1C)C(=O)C1(C2)Cc2ccc3c(c2C1=O)CCC3 (stereo not drawn)

>  <Subject Of Test>
SNB-75

>  <Obs Value>
> 100 µM (inactive)

$$$$
>  <Molecule>
CCOC(=O)CC(NC(=O)c1nc[nH]c1[N+](=O)[O-])C(=O)OCC (stereo not drawn)

>  <Subject Of Test>
SNB-75

>  <Obs Value>
> 100 µM (inactive)

$$$$

Consider now this further molecule.
Missing value: GI50, SNB-75, entry O=C1O[C@H]2[C@H](OC(=O)c3cc(O)c(O)c(O)c3)[C@@H](OC(=O)c3cc(O)c(O)c4c3[C@@H]3C1=CC(=O)C(O)(O)C3(O)O4)[C@H](OC(=O)c1cc(O)c(O)c(O)c1)O[C@@H]2COC(=O)c1cc(O)c(O)c(O)c1 (stereo partly drawn) . Fill in?
49.9 µM (inactive)

* * *

Tested on: OVCAR-5
Assay: NCI tumour cell line growth inhibition, 48 h
Activity calls are given as the source filed them. Rule as the data show it: active = GI50 up to about 1.1 µM and inactive = higher.
# output must be one of YES for active, NO for inactive

Use these answered entries as a reference point.
>  <Compound>
O=S(=O)(c1cc(Cl)ccc1Cl)N1CCN(c2cccc(Cl)c2)CC1

>  <Subject Of Test>
OVCAR-5

>  <Label Value>
NO

$$$$
>  <Compound>
COC1=CC(=O)c2c(O)c3c(c(O)c2C1=O)C=C(C)OC3O (configuration not stated)

>  <Subject Of Test>
OVCAR-5

>  <Label Value>
NO

$$$$
>  <Compound>
CCOC(=O)c1ccc(N2C(=O)/C(=C/c3ccc(N(CCC#N)CCC#N)cc3)N=C2c2cc([N+](=O)[O-])ccc2Cl)cc1

>  <Subject Of Test>
OVCAR-5

>  <Label Value>
NO

$$$$
>  <Compound>
CSc1nc2c(c(O)c(C)c(=O)n2C2OCC(OC(C)=O)C(OC(C)=O)C2OC(C)=O)c(=O)n1C (configuration not stated)

>  <Subject Of Test>
OVCAR-5

>  <Label Value>
NO

$$$$
>  <Compound>
C[C@H]1CCCCC[C@@H]2CC(=O)CC2C(=O)CCC(=O)O1 (some centres not stated)

>  <Subject Of Test>
OVCAR-5

>  <Label Value>
NO

$$$$
>  <Compound>
O=C1C2Cc3ccccc3CN2C(=O)N1CCN1CCCC1 (configuration not stated)

>  <Subject Of Test>
OVCAR-5

>  <Label Value>
NO

$$$$
>  <Compound>
Cc1cc2occ(C)c(=O)c2c2c1OC(C)(C)S2

>  <Subject Of Test>
OVCAR-5

>  <Label Value>
NO

$$$$
>  <Compound>
O=C(NC1(C(=O)O)CC1c1ccccc1)c1ccccc1 (configuration not stated)

>  <Subject Of Test>
OVCAR-5

>  <Label Value>
NO

$$$$
>  <Compound>
COC(=O)[C@]12CSC[C@H]1C[C@H](c1cccc3ccccc13)N2

>  <Subject Of Test>
OVCAR-5

>  <Label Value>
NO

$$$$
>  <Compound>
Cc1occc1C(=S)Nc1ccc(Cl)c(C(=O)OCC(C)C)c1

>  <Subject Of Test>
OVCAR-5

>  <Label Value>
NO

$$$$

What did the test return for `CN(C)CCSS(=O)(=O)O` ?
NO

Moving on to the next compound: `O=C(N/N=C(COc1ccccc1)\N=C\c1ccncc1)c1ccncc1`
NO

Moving on to the next compound: `CCOP(=O)(OCC)/C(C#N)=C/c1ccc(-c2ccc(F)cc2F)o1`
NO

Moving on to the next compound: `O=c1ccn([C@@H]2C[C@H]2CO)c(=O)[nH]1`
NO

Moving on to the next compound: `O=C1c2cccc3cccc(c23)C(=O)N1CCCNCCCCNCCCN1C(=O)c2cccc3cccc(c23)C1=O`
YES

Moving on to the next compound: COc1cc(O)c2c(O)c3c(=O)oc(C)cc3c(OC)c2c1 [PAEPALANTINE]
NO

Moving on to the next compound: `CCOC(=O)C(=CNc1ccc(F)c(F)c1)C(=O)OCC`
NO
